target: PARP1 V687A/E688A (UniProt P09874 1-1014, V687A;E688A); assay: fluorescence polarization
Sequence (P09874 whole entry V687A/E688A): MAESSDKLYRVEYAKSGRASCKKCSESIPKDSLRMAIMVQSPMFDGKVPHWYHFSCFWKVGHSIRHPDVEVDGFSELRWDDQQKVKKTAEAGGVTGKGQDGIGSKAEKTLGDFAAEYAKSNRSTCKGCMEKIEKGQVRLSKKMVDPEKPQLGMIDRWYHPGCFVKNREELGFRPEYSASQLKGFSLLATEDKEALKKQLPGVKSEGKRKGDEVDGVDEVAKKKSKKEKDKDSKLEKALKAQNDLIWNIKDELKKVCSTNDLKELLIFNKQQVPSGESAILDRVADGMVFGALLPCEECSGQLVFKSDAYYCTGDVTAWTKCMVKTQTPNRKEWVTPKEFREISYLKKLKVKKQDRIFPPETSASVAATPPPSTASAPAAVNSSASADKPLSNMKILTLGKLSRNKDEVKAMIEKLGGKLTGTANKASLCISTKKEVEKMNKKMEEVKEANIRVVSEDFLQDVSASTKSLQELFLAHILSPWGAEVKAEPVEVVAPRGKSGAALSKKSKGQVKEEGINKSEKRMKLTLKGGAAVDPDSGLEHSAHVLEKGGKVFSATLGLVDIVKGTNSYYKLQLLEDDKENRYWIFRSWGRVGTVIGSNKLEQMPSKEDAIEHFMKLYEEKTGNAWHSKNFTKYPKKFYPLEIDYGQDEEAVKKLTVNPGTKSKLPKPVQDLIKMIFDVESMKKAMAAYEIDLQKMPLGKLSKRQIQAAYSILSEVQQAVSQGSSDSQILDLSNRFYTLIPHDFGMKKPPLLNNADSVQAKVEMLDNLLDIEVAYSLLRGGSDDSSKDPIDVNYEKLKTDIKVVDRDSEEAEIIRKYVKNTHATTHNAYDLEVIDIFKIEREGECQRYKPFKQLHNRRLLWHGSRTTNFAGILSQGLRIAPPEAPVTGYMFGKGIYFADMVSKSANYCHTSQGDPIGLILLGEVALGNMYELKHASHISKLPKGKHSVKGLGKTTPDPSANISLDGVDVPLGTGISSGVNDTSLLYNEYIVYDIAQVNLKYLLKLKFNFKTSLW
readoutName: pKd
In plain terms, pKd is the concentration in mol/L turned into minus its base-10 logarithm.

Please fill in: pKd reported for 18-bp DSB duplex (dsDNA) DNA 1: GGGTTGCGGCCGCTTGGG DNA 2: CCCAAGCGGCCGCAACCC = 7.99

Origin of the recorded values: paper PMC9391306
